Test system: P93_24
Assay: qHTS profiling for inhibitors of Plasmodium falciparum proliferation (AID 504749); note: nearly all actives have a fitted effect of over 60% in size
Details: P. falciparum in erythrocytes, SYBR Green DNA, 72 h; series mostly up to 28.7 µM
Records with an inconclusive call do not appear. Active and inactive are the calls of the source. Calls come from the whole dose curve; as a rule, active = well fitted inhibition curve with a large enough effect; inconclusive = small, poorly fitted or top-dose-only effect; inactive = flat fitted curve, though single readings scatter. Square brackets hold non-standard residues; d marks the D form. Peptide text beside a SMILES is read from it. Orn = NCCC[CH](N)C(=O)O
// one of active, inactive, no free text

Please review the entries below; each comes with its answer.
CC(C)C[C@H](NC(=O)[C@@H](Cc1c[nH]c2ccccc12)NC(=O)[C@@H](Cc1ccc(O)cc1)NC(=O)[C@@H](CO)NC(=O)[C@@H](Cc1c[nH]c2ccccc12)NC(=O)C(Cc1cnc[nH]1)NC(=O)C1CCC(=O)N1)C(=O)N[C@@H](CCCN=C(N)N)C(=O)N1CCC[C@@H]1C(=O)NCC(N)=O (some centres not stated); inactive
CC(N)C(=O)NCC(=O)NC1CSSCC(C(=O)O)NC(=O)C(CO)NC(=O)C(C(C)O)NC(=O)C(Cc2ccccc2)NC(=O)C(C(C)O)NC(=O)C(CCCCN)NC(=O)C(Cc2c[nH]c3ccccc23)NC(=O)C(Cc2ccccc2)NC(=O)C(Cc2ccccc2)NC(=O)C(CC(N)=O)NC(=O)C(CCCCN)NC1=O (configuration not stated); inactive
CNCC(=O)NC(CCCN=C(N)N)C(=O)NC(C(=O)NC(Cc1ccc(O)cc1)C(=O)NC(C(=O)NC(Cc1cnc[nH]1)C(=O)N1CCCC1C(=O)NC(C)C(=O)O)C(C)C)C(C)C (configuration not stated); inactive
CCC(C)C1NC(=O)C(Cc2ccc(O)cc2)NC(=O)C(N)CSSCC(C(=O)N2CCCC2C(=O)NC(CC(C)C)C(=O)NCC(N)=O)NC(=O)C(CC(N)=O)NC(=O)C(CCC(N)=O)NC1=O (configuration not stated); inactive
O=C1/C(=C\c2cccs2)CCC/C1=C/c1cccs1; inactive
CC(C)CC1NC(=O)C(CCCN)NC(=O)C(C(C)C)NC(=O)C2CCCN2C(=O)C(Cc2ccccc2)NC(=O)C(CC(C)C)NC(=O)C(CCCN)NC(=O)C(C(C)C)NC(=O)C2CCCN2C(=O)C(Cc2ccccc2)NC1=O (configuration not stated) (cyclo(FPV[Orn]LFPV[Orn]L); configuration not given here); active

Now take the following molecule into account.
In: Tell me the recorded outcome of this test for C=CC1=C(C(=O)O)N2C(=O)[C@@H](NC(=O)C(N=O)c3csc(N)n3)[C@H]2SC1 (some centres not stated) .
Out: inactive

---

Biological target: Cytochrome P450 3A4 (Homo sapiens) (UniProt P08684)
Sequence (P08684 whole entry, looked up): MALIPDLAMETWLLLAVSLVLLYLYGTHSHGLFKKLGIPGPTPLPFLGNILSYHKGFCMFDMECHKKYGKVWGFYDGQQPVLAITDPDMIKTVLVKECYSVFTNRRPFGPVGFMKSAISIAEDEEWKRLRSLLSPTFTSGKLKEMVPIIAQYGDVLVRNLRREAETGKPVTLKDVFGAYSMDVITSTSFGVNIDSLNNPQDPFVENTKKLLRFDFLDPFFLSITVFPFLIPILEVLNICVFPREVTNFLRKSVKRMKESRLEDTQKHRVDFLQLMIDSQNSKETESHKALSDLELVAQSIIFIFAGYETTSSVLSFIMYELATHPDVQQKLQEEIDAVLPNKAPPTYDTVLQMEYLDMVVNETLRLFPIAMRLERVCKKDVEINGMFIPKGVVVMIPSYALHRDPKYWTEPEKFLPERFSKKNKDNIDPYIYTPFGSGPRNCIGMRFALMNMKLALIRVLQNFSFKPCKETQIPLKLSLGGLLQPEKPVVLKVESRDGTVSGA
Experiment: qHTS Assay for Activators of Cytochrome P450 3A4 (AID 885); note: nearly all actives have a fitted effect of over 65% in size
Conditions: recombinant CYP3A4, Luciferin-PPXE luminescence, 60 min; series mostly up to 57.1 µM
Active and inactive are the calls of the source. The call rests on the fitted dose curve; in most records, active means well fitted activation curve with a large enough effect; inconclusive means small, poorly fitted or top-dose-only effect; inactive means no such curve, though single readings can be large or run the other way.
metric: activity change, positive = activation

Cc1ccc(C(=O)[C@@H]2[C@H]3C4COC(O4)C(=O)[C@@H]3[C@H]3C=Cc4ccccc4N32)cc1 (some centres undefined); inactive
CCCCCCN(C(=O)CCCCCN1C(=O)NC(c2ccc(-c3ccccc3)cc2)C(C(=O)OCc2ccccc2)=C1C)C(C(=O)NCCCC)c1ccc(OCC(=O)O)c(C(=O)O)c1 (centres undefined); inactive
C/C(CCC(=O)OC[C@@H]1O[C@H](C#Cc2ccccc2)C=C[C@@H]1Oc1ccc(C)cc1)=N/O[C@@H](C)CN1CCCCc2nc(C)c(C)cc21; -94.6% [at 11.4 µM] (inactive)
COC(=O)C(C(=O)OC)C1O[C@@]23COCCC2(C)C3c2ccccc21 (some centres undefined); -34.9% [at 11.4 µM] (inactive)

Cited source for all entries: PubChem BioAssay (NCATS)
